System: HLA-A*24
test: MHC binding assay, UV-ligand exchange with beta2m ELISA (exchange yield), HLA-A*24
Set-up: species or system human
applied.conditions: binding to HLA-A*24, UV-ligand exchange
parameter: Peptide exchange (MHC class I binding score, peptide exchange yield)

// below: answered substances
substance: 202 (RYVEGIVSL; listed as Homo sapiens) [compound 202]
test.result: +++ (50%-75% = +++)

substance: 312 (SYTSVLSRL; listed as Homo sapiens) [compound 312]
test.result: +++ (50%-75% = +++)

substance: 237 (KYVGQLAVL; listed as Homo sapiens) [compound 237]
test.result: +++ (50%-75% = +++)

substance: 387 (KYTEKLEEI; listed as Homo sapiens) [compound 387]
test.result: +++ (50%-75% = +++)

substance: 161 (KYPDIVQQF; listed as Homo sapiens) [compound 161]
test.result: +++ (50%-75% = +++)

substance: 121 (RYGLPAAWSTF; listed as Homo sapiens) [compound 121]
test.result: +++ (50%-75% = +++)

substance: 385 (QYIEELQKF; listed as Homo sapiens) [compound 385]
test.result: +++ (50%-75% = +++)

substance: 205 (VYPVVLNQI; listed as Homo sapiens) [compound 205]
test.result: +++ (50%-75% = +++)

substance: 362 (VYNYAEQTL; listed as Homo sapiens) [compound 362]
test.result: ++ (20%-49% = ++)

substance: 352 (QYGGDLTNTF; listed as Homo sapiens) [compound 352]
test.result: +++ (50%-75% = +++)

Prompt: Entry 215 (SYVASFFLL; listed as Homo sapiens) [compound 215] has what Peptide exchange (MHC class I binding score, peptide exchange yield)?
Response: ++ (20%-49% = ++)

Prompt: Please do the same for 380 (VYTGIDHHW; listed as Homo sapiens) [compound 380] as well.
Response: ++++ (>=75% = ++++)

Prompt: Please do the same for 283 (EYQEIFQQL; listed as Homo sapiens) [compound 283] as well.
Response: +++ (50%-75% = +++)

###

System: HLA-A*24
test: MHC binding assay, UV-ligand exchange with beta2m ELISA (exchange yield), HLA-A*24
Set-up: species or system human
applied.conditions: binding to HLA-A*24, UV-ligand exchange
parameter: Peptide exchange (MHC class I binding score, peptide exchange yield)

// below: answered substances
substance: 296 (SYQVIFQHF; listed as Homo sapiens) [compound 296]
test.system: HLA-A*24
test.result: ++++ (>=75% = ++++)
--
substance: 306 (VYPAEQPQI; listed as Homo sapiens) [compound 306]
test.system: HLA-A*24
test.result: +++ (50%-75% = +++)
--
substance: 379 (VFIAQGYTL; listed as Homo sapiens) [compound 379]
test.system: HLA-A*24
test.result: ++++ (>=75% = ++++)
--
substance: 138 (VYNAVSTSF; listed as Homo sapiens) [compound 138]
test.system: HLA-A*24
test.result: ++ (20%-49% = ++)
--
substance: 289 (FFHEGQYVF; listed as Homo sapiens) [compound 289]
test.system: HLA-A*24
test.result: ++++ (>=75% = ++++)
--
substance: 356 (NYMPGQLTI; listed as Homo sapiens) [compound 356]
test.system: HLA-A*24
test.result: ++++ (>=75% = ++++)
--
substance: 148 (SYGTVSQIF; listed as Homo sapiens) [compound 148]
test.system: HLA-A*24
test.result: ++++ (>=75% = ++++)
--
substance: 141 (SYNGHLTIWF; listed as Homo sapiens) [compound 141]
test.system: HLA-A*24
test.result: +++ (50%-75% = +++)
--
substance: 366 (QYLELAHSL; listed as Homo sapiens) [compound 366]
test.system: HLA-A*24
test.result: +++ (50%-75% = +++)
--
substance: 270 (YYSQESKVLYL; listed as Homo sapiens) [compound 270]
test.system: HLA-A*24
test.result: +++ (50%-75% = +++)

Prompt: Entry 99 (QYILAVPVL; listed as Homo sapiens) [compound 99] has what Peptide exchange (MHC class I binding score, peptide exchange yield)?
Response: ++++ (>=75% = ++++)

Prompt: Please do the same for 221 (KYIGNLDLL; listed as Homo sapiens) [compound 221] as well.
Response: ++++ (>=75% = ++++)

Prompt: Please do the same for 217 (IYISNSIYF; listed as Homo sapiens) [compound 217] as well.
Response: ++++ (>=75% = ++++)

Prompt: Please do the same for 228 (IYQYVADNF; listed as Homo sapiens) [compound 228] as well.
Response: +++ (50%-75% = +++)

Prompt: Please do the same for 160 (RYGDGGSSF; listed as Homo sapiens) [compound 160] as well.
Response: +++ (50%-75% = +++)

Prompt: Please do the same for 110 (SYPKIIEEF; listed as Homo sapiens) [compound 110] as well.
Response: +++ (50%-75% = +++)

Prompt: Please do the same for 315 (FYIPHVPVSF; listed as Homo sapiens) [compound 315] as well.
Response: +++ (50%-75% = +++)

Prompt: Please do the same for 342 (NYAFLHRTL; listed as Homo sapiens) [compound 342] as well.
Response: +++ (50%-75% = +++)

Prompt: Please do the same for 266 (KYTDWTEFL; listed as Homo sapiens) [compound 266] as well.
Response: +++ (50%-75% = +++)

Prompt: Please do the same for 273 (IYGEKLQFIF; listed as Homo sapiens) [compound 273] as well.
Response: +++ (50%-75% = +++)

Prompt: Please do the same for 123 (VYTPVLEHL; listed as Homo sapiens) [compound 123] as well.
Response: ++ (20%-49% = ++)

Prompt: Please do the same for 344 (EYNSDLHQF; listed as Homo sapiens) [compound 344] as well.
Response: +++ (50%-75% = +++)

Prompt: Please do the same for 113 (IYSFHTLSF; listed as Homo sapiens) [compound 113] as well.
Response: +++ (50%-75% = +++)

Prompt: Please do the same for 311 (EYLQNLNHI; listed as Homo sapiens) [compound 311] as well.
Response: ++++ (>=75% = ++++)

Prompt: Please do the same for 181 (VYPPYLNYL; listed as Homo sapiens) [compound 181] as well.
Response: +++ (50%-75% = +++)

Prompt: Please do the same for 206 (NYLDVATFL; listed as Homo sapiens) [compound 206] as well.
Response: ++++ (>=75% = ++++)

Prompt: Please do the same for 135 (VYEAMVPLF; listed as Homo sapiens) [compound 135] as well.
Response: ++++ (>=75% = ++++)

Prompt: Please do the same for 116 (AYVIAVHLF; listed as Homo sapiens) [compound 116] as well.
Response: ++++ (>=75% = ++++)

Prompt: Please do the same for 249 (RYHPTTCTI; listed as Homo sapiens) [compound 249] as well.
Response: ++++ (>=75% = ++++)

Prompt: Please do the same for 156 (YYMELTKLLL; listed as Homo sapiens) [compound 156] as well.
Response: ++++ (>=75% = ++++)

Prompt: Please do the same for 308 (TFDGHGVFF; listed as Homo sapiens) [compound 308] as well.
Response: +++ (50%-75% = +++)

Prompt: Please do the same for 219 (SYLKAVFNL; listed as Homo sapiens) [compound 219] as well.
Response: +++ (50%-75% = +++)
